# Method notes: Human HepG2 cell viability assay in 384 well format
# Type: toxicity, cell-based
# Set-up: dose 125 nL, time 70.5 hour; concentration not given beside the values
# Condition: HepG2 cells, read-out: Inhibition
Items are presented alongside their recorded cytotoxicity at 70.5 h.
I only need the number, in %, no unit after it.

Indicate its recorded cytotoxicity at 70.5 h; the molecule in question is Cc1cc(C)c(CNC(=O)NCC2Cc3ccccc32)c(=O)[nH]1 (stereo unspecified)
-12

Indicate its recorded cytotoxicity at 70.5 h; the molecule in question is Cc1ccc(C(O)CNCCn2cccn2)cc1C (stereo unspecified)
-3.19

* * *

# Method notes: Human HepG2 cell viability assay in 384 well format
# Type: toxicity, cell-based
# Parameters: dose 125 nL, time 70.5 hour; concentration not given beside the values
# Condition: HepG2 cells, read-out: Inhibition
Endpoint label: cytotoxicity at 70.5 h (%)
I only need the number, in %, no unit after it.

Recorded cytotoxicity at 70.5 h, per entry:
Cc1cnn(-c2ccc(C(=O)N3CCN(C)CC3C)cc2)c1 (stereo unspecified) = -3.9
CCN(CC1COc2ccccc2O1)C(=O)NCCCn1cncn1 (stereo unspecified) = -10.8
O=c1ccc2c([nH]1)CCC(NCc1ccc(F)cc1)C2 (stereo unspecified) = -5.16

Indicate its recorded cytotoxicity at 70.5 h; the compound in question is CCN1CCCC(CN2CCn3nc(CNC(=O)N(C)C)cc3C2)C1 (stereo unspecified)
-8.51

Indicate its recorded cytotoxicity at 70.5 h; the compound in question is CNC(=O)C1(c2cnccn2)CCCN1C(=O)c1ccc(F)cc1 (stereo unspecified)
22.8

Indicate its recorded cytotoxicity at 70.5 h; the compound in question is CCCc1nnc(N2CCC(C3CCN(C)CC3)CC2)o1
9.11

Indicate its recorded cytotoxicity at 70.5 h; the compound in question is CCC[C@H]1CN(S(C)(=O)=O)C[C@@H]1NC(=O)Cc1ccc(F)cc1C
-1.4

Indicate its recorded cytotoxicity at 70.5 h; the compound in question is CC(NC(=O)N1CCC[C@H]1CO)c1noc(-c2ccccc2)n1 (stereo partly specified)
-3.8

Indicate its recorded cytotoxicity at 70.5 h; the compound in question is O=C(COc1ccc2c(c1)CCC2)N1CCOCC1c1ncon1 (stereo unspecified)
-10.4

Indicate its recorded cytotoxicity at 70.5 h; the compound in question is COC(=O)CCn1ccc(=O)c2cc(OC)ccc21
-0.582

Indicate its recorded cytotoxicity at 70.5 h; the compound in question is CCNC(=O)N1CCC(Nc2nccc(NCC)n2)CC1
-11.4

Indicate its recorded cytotoxicity at 70.5 h; the compound in question is CCNC(=O)c1nnn(Cc2ccccc2)c1OC
-7.02

Indicate its recorded cytotoxicity at 70.5 h; the compound in question is CN(C)C1CCC2(CCN(Cc3cccnc3)CC2)c2ccccc21 (stereo unspecified)
-3.39

Indicate its recorded cytotoxicity at 70.5 h; the compound in question is Cc1ncc(-c2ccnc(N3CC[C@H](O)C3)n2)c(-c2cccnc2)n1
-6.52

Indicate its recorded cytotoxicity at 70.5 h; the compound in question is CCc1nc(C)c(C(=O)NCCNc2cnccn2)s1
3.09

Indicate its recorded cytotoxicity at 70.5 h; the compound in question is O=C1OC2(CCN(C3CCCOC3)CC2)CN1CCc1ccccc1 (stereo unspecified)
5.31

Indicate its recorded cytotoxicity at 70.5 h; the compound in question is COCC1CN(C(=O)c2cccn2C)Cc2nccn2C1 (stereo unspecified)
-18.2
